biological target: aldose reductase (Rattus norvegicus); construct: partially purified enzyme from rat lens; from tissue; host or cells: rat lens; assay: Inhibitory activity on aldose reductase in vivo (serum of orally dosed rats added to the aldose reductase assay); conditions: oral, serum taken 5 hr after administration, 0.5 ml added to assay, read-out: Inhibition % on aldose reductase in vivo, 5 hr after administration
Overview of recorded inhibition at 25 mg/kg for various compounds

- COMPOUND: "O=C1CC2(C(=O)N1)C(=O)N1CCSc3cccc2c31 (stereo not drawn) [Example 11]"
  inhibition at 25 mg/kg: "71.3%"
- COMPOUND: "O=C1CC2(C(=O)N1)C(=O)N1CCOc3c(Cl)c(Cl)cc2c31 (stereo not drawn) [Example 13]"
  inhibition at 25 mg/kg: "81.2%"
- COMPOUND: "O=C1CC2(C(=O)N1)C(=O)N1CCOc3c(F)c(F)cc2c31 (stereo not drawn) [Example 15]"
  inhibition at 25 mg/kg: "75.2%"
- COMPOUND: "O=C1CC2(C(=O)N1)C(=O)N1CCOc3c(Cl)ccc2c31 (stereo not drawn) [Example 12]"
  inhibition at 25 mg/kg: "73.9%"
- COMPOUND: "Cc1cc2c3c(c1)C1(CC(=O)NC1=O)C(=O)N3CCC2 (stereo not drawn) [Example 7]"
  inhibition at 25 mg/kg: "33.8%"
- COMPOUND: "O=C1CC2(C(=O)N1)C(=O)N1CCOc3cccc2c31 (stereo not drawn) [Example 5]"
  inhibition at 25 mg/kg: "47.6%"
- COMPOUND: "O=C1NC(=O)[C@@]2(CCOc3ccc(F)cc32)N1 [Sorbinil, reference compound]"
  inhibition at 25 mg/kg: "79.5%"
- COMPOUND: "O=C1CC2(C(=O)N1)C(=O)N1CCCc3cc(Cl)cc2c31 (stereo not drawn) [Example 2]"
  inhibition at 25 mg/kg: "68.5%"
- COMPOUND: "O=C1CC2(C(=O)N1)C(=O)N1CCOc3cc(Cl)cc2c31 (stereo not drawn) [Example 8]"
  inhibition at 25 mg/kg: "61.4%"

---

biological target: aldose reductase (Rattus norvegicus, UniProt P07943); construct: partially purified enzyme from rat lens; from tissue; host or cells: rat lens; assay: Inhibitory activity on aldose reductase in vivo (serum of orally dosed rats added to the aldose reductase assay); conditions: oral, serum taken 2 hr after administration, 0.5 ml added to assay, read-out: Inhibition % on aldose reductase in vivo, 2 hr after administration
Note to self: values exactly at 50% are Y. So inhibition at 25 mg/kg at or above 50% is Y, below is N.

- COMPOUND: "CC1CCc2cccc3c2N1C(=O)C31CC(=O)NC1=O (centres unmarked) [Example 3]"
  SYSTEM_TESTED: "aldose reductase (Rattus norvegicus, UniProt P07943)"
  CLASS: "Y"
- COMPOUND: "CC1CCc2cc(Cl)cc3c2N1C(=O)C31CC(=O)NC1=O (centres unmarked) [Example 4]"
  SYSTEM_TESTED: "aldose reductase (Rattus norvegicus, UniProt P07943)"
  CLASS: "Y"
- COMPOUND: "O=C1CC2(C(=O)N1)C(=O)N1CCCc3cc(Cl)cc2c31 (centres unmarked) [Example 2]"
  SYSTEM_TESTED: "aldose reductase (Rattus norvegicus, UniProt P07943)"
  CLASS: "Y"
- COMPOUND: "O=C1CC2(C(=O)N1)C(=O)N1CCOc3cccc2c31 (centres unmarked) [Example 5]"
  SYSTEM_TESTED: "aldose reductase (Rattus norvegicus, UniProt P07943)"
  CLASS: "Y"
- COMPOUND: "Cc1cc2c3c(c1)C1(CC(=O)NC1=O)C(=O)N3CCC2 (centres unmarked) [Example 7]"
  SYSTEM_TESTED: "aldose reductase (Rattus norvegicus, UniProt P07943)"
  CLASS: "N"

---

Parameter 'readout' = pIC50; parameter 'system' = aldose reductase (Rattus norvegicus).
pIC50: −log10 of the molar value.

- MOLECULE: "O=C1CC2(C(=O)N1)C(=O)N1CCOc3cc(F)cc2c31 (centres unmarked)"
  pIC50: 6.15
- MOLECULE: "O=C1CC2(C(=O)N1)C(=O)N1CCOc3cc(Cl)cc2c31 (centres unmarked)"
  pIC50: 6.22
- MOLECULE: "O=C1CC2(C(=O)N1)C(=O)N1CCCc3cccc2c31 (centres unmarked)"
  pIC50: 5.22
- MOLECULE: "O=C1CC2(C(=O)N1)C(=O)N1CCOc3c(Cl)c(Cl)cc2c31 (centres unmarked)"
  pIC50: 6.70
- MOLECULE: "Cc1cc2c3c(c1)C1(CC(=O)NC1=O)C(=O)N3CCO2 (centres unmarked)"
  pIC50: 5.60

---

target: aldose reductase (Rattus norvegicus); construct: partially purified enzyme from rat lens; from tissue; host or cells: rat lens; test: Inhibitory activity on aldose reductase in vivo (serum of orally dosed rats added to the aldose reductase assay); conditions: oral, serum taken 2 hr after administration, 0.5 ml added to assay, read-out: Inhibition % on aldose reductase in vivo, 2 hr after administration
READOUT_TYPE: inhibition at 25 mg/kg

- COMPOUND: "O=C1CC2(C(=O)N1)C(=O)N1CCOc3c(Cl)ccc2c31 (stereo not drawn)"
  READOUT_TYPE: "inhibition at 25 mg/kg"
  RESULT: "72.3%"
- COMPOUND: "O=C1CC2(C(=O)N1)C(=O)N1CCOc3c(Cl)c(Cl)cc2c31 (stereo not drawn)"
  READOUT_TYPE: "inhibition at 25 mg/kg"
  RESULT: "78.2%"
- COMPOUND: "O=C1CC2(C(=O)N1)C(=O)N1CCOc3c(F)c(F)cc2c31 (stereo not drawn)"
  READOUT_TYPE: "inhibition at 25 mg/kg"
  RESULT: "74.9%"
